Reported TGI values for a set of compounds
- Test system: SN12C renal
- procedureDetails: NCI tumour cell line growth inhibition, 48 h

Solved cases (5 shown):
compound	result
Cc1c(-c2ccnc(N)n2)c2c(n1-c1ccccc1)C(=O)c1ccccc1C2=O	53.8 µM
COc1ccc(C2=C(N)c3cc(OC)ccc3C2=O)cc1	> 100 µM
CC1=NNC(N)=N/C1=C\C(Sc1ccc(Cl)cc1)c1ccc(Cl)cc1Cl (stereo unspecified)	62.4 µM
CC1CCCc2c(CC3CC(=O)NC(=O)C3)nc(N)nc21 (stereo unspecified)	> 100 µM
COc1ccc(-c2nc3ncccn3c2-c2ccc(S(C)(=O)=O)cc2)cc1	> 100 µM

Now look at this one.
Need TGI, item CCN(CC)C(=O)c1ccc(C)c(N=NN(C)C)c1 > 100 µM

====

- System: LOX IMVI melanoma
- procedureDetails: NCI tumour cell line growth inhibition, 48 h
property: TGI

compound	studySystem	TGI
CCC1C(=O)OCc2c1cc1n(c2=O)Cc2ccccc2-1 (stereo unspecified)	LOX IMVI melanoma	> 100 µM
CC1=NNC(N)=N/C1=C\C(Sc1ccc(Cl)cc1)c1ccc(Cl)cc1Cl (stereo unspecified)	LOX IMVI melanoma	> 49.4 µM
Cc1nc(C)c(C(=O)NNC(=O)c2ccccc2)cc1C(=O)NNC(=O)c1ccccc1	LOX IMVI melanoma	> 100 µM

Which measured TGI belongs to O=C(Nc1ccc(Oc2cccc(Cl)c2)c(Cl)c1)c1cccnc1 , tested on LOX IMVI melanoma? 13 µM

Which measured TGI belongs to CN1CCN(C2CC(=O)c3c(Cl)sc(Cl)c32)CC1 (stereo unspecified) , tested on LOX IMVI melanoma? 3.83 µM

Which measured TGI belongs to CC(=O)c1c2c(cc3c1CCC3)CCC2 , tested on LOX IMVI melanoma? > 100 µM

====

- Tested on: UACC-62 melanoma
- procedureDetails: NCI tumour cell line growth inhibition, 48 h
property: TGI

Solved cases (4 shown):
compound	property	result
CC(=O)O[C@H]1CC[C@]2(C=O)[C@H]3CC[C@]4(C)[C@@H](C5=CC(=O)OC5)CC[C@]4(O)[C@@H]3CC[C@]2(O)C1	TGI	1.1 µM
COC(=O)C1=C(c2cc(OC)c(OC)c(OC)c2)OC(c2cc(OC)c(OC)c(OC)c2)C1 (stereo unspecified)	TGI	27.5 µM
N#CSc1cc(-c2nc3ccccc3o2)ccc1N	TGI	30.8 µM
Cc1nc2cccc(F)c2c(=O)n1-c1nnc(C2CC2)s1	TGI	> 10 µM

Need TGI, item O=C(Nc1ccc(I)cc1F)c1cc(F)ccc1O 0.853 µM

Need TGI, item CCn1c(-c2nonc2N)nc2c(C#CC(C)(C)O)ncc(OCC3CCNCC3)c21 > 25 µM

====

- System: OVCAR-4 ovarian
- procedureDetails: NCI tumour cell line growth inhibition, 48 h
property: TGI

molecule	TGI
O=C1CSC(c2cc3cc(Br)ccc3nc2Cl)N1c1ccc(F)c(Cl)c1 (stereo unspecified)	> 50 µM

Which measured TGI belongs to COc1ccc(C2=C(N)c3cc(OC)ccc3C2=O)cc1 , tested on OVCAR-4 ovarian? > 100 µM

Which measured TGI belongs to N#CCCCCCn1c2ccccc2c2c3c(c4c5ccccc5[nH]c4c21)C(=O)N(O)C3=O , tested on OVCAR-4 ovarian? 13 µM

Which measured TGI belongs to CSC(=N/N=C(\C)c1ccc(S(=O)(=O)N(C)c2ccccc2)cc1)SC , tested on OVCAR-4 ovarian? > 100 µM

Which measured TGI belongs to NC(=O)c1nnc2c(F)cccc2c1N , tested on OVCAR-4 ovarian? > 100 µM

Which measured TGI belongs to NC(=O)c1ccc(S(=O)(=NS(=O)(=O)c2ccccc2)c2ccc(C(N)=O)cc2)cc1 , tested on OVCAR-4 ovarian? > 100 µM

====

- Test system: SF-539 CNS
- procedureDetails: NCI tumour cell line growth inhibition, 48 h
Reported TGI values for a set of compounds
Return type: number; implicit unit µM.

Need TGI, item O=C(Nc1ccc(I)cc1F)c1cc(F)ccc1O 7.07

Need TGI, item Fc1ccc(-c2ncn(C3CCNCC3)c2-c2ccnc(Oc3ccc(Oc4ccccc4)cc3)n2)cc1 7.92

====

- Test system: MDA-MB-435
- procedureDetails: NCI tumour cell line growth inhibition, 48 h
Reported TGI values for a set of compounds

compound	result
CCOC(=O)c1sc2[n+](c1C)C(=O)/C(=C/c1ccccc1Cl)S2	> 100 µM
O=C(OCC(OC(=O)c1ccccc1)C1CC(C(O)C2CCCCC2)C(=O)O1)c1ccccc1 (configuration not stated)	> 100 µM
CCN(CC)CCC1(C(=O)OC)SCCc2ccc(C)cc21 (configuration not stated)	> 100 µM
C[C@@H]1CC(=O)[C@@]2(C)[C@](O)(CCC3O[C@]32C)[C@@]12CC(c1ccoc1)OC2=O (some centres not stated)	> 100 µM
COc1ccc(C(OCC2OC(n3ccc(Oc4c(F)c(F)c(F)c(F)c4F)nc3=O)CC2OP(OCCC#N)N(C(C)C)C(C)C)(c2ccccc2)c2ccc(OC)cc2)cc1 (configuration not stated)	> 100 µM

Need TGI, item CC(C)(C)C1=CC(O)(c2c3ccccc3c(C3(O)C=C(C(C)(C)C)C(=O)C(C(C)(C)C)=C3)c3ccccc23)C=C(C(C)(C)C)C1=O 0.0354 µM

Need TGI, item N#Cc1nc(-c2ccccn2)c(-c2ccccn2)nc1C#N 22.4 µM

Need TGI, item COC1OC2COC(c3ccccc3)OC2C(OC(=S)c2ccccc2)C1O (configuration not stated) 22.8 µM

Need TGI, item CCN1CCN(c2nc(NNC(=O)c3cccc(OC)c3)nc(N3CCN(C(c4ccccc4)c4ccccc4)CC3)n2)CC1 3.19 µM

Need TGI, item CC(=O)N1C(=O)/C(=C\C(=O)c2ccc(Cl)cc2)c2ccccc21 36.5 µM

Need TGI, item CC(=O)c1nc(C#N)c(N)o1 > 100 µM

Need TGI, item Cc1cncc2cccc(S(=O)(=O)N3CCCNC[C@@H]3C)c12 > 100 µM

Need TGI, item Nc1cc2ccncc2c2ccccc12 60 µM

Need TGI, item Cn1ccnc1C(=O)/C=C/c1ccc(CC(=O)Nc2cc(F)c(F)c(F)c2)cc1 10.4 µM

Need TGI, item Cc1cc(=O)oc2c(CN(CCCl)CCCl)c(O)ccc12 > 100 µM

Need TGI, item N#Cc1nc(C(=O)c2ccccc2)oc1N > 100 µM

Need TGI, item COc1ccc(C2=C(N)c3cc(OC)ccc3C2=O)cc1 > 100 µM

Need TGI, item COc1cc(OC)cc(-c2nc3ccccc3c(=O)[nH]2)c1 > 100 µM

Need TGI, item CCCCOc1nc2ccccc2cc1C1CNC(=O)c2ccccc2N1 (configuration not stated) 1.82 µM

Need TGI, item CCN(CC)Cc1cc(Nc2c3ccc(Cl)cc3nc3c(C)cccc23)ccc1O 3.14 µM

Need TGI, item CC(NC1=NCCO1)c1ccco1 (configuration not stated) > 100 µM

Need TGI, item O=C(CN1CCN(c2cc3c(cc2F)c(=O)c(C(=O)O)cn3C2CC2)CC1)Nc1ccc(C(=O)/C=C/c2ccccc2)cc1 > 100 µM

Need TGI, item O=C(CSCC(=O)N/N=C\c1cccc(Br)c1)N/N=C\c1cccc(Br)c1 44.7 µM

====

- System: OVCAR-8 ovarian
- procedureDetails: NCI tumour cell line growth inhibition, 48 h; in the data active = GI50 below about 0.43 µM; inactive = the rest
Parameter call: string, one of active, inactive

compound	category
Fc1ccc(-c2ncn(C3CCNCC3)c2-c2ccnc(Oc3ccc(Oc4ccccc4)cc3)n2)cc1	inactive
S=C1NC2=C(CCOc3c2ccc2ccccc32)C(c2ccc(Cl)cc2)N1 (stereo not drawn)	inactive
CCOC(=O)CCC(NC(=O)c1ccc(Nc2nc3cc(N)cc(N)c3nc2-c2ccccc2)cc1)C(=O)OCC (stereo not drawn)	inactive
CCN(CC)Cc1cc(Nc2c3ccc(Cl)cc3nc3c(C)cccc23)ccc1O	inactive
CCCCOc1nc2ccccc2cc1C1CNC(=O)c2ccccc2N1 (stereo not drawn)	inactive
COc1ccc(Nc2ccnc3cc(Cl)ccc23)cc1CN(CCCl)CCCl	inactive
CC(=O)[O-].CC(=O)[O-].CC(=O)[O-].CC(=O)[O-].CO.CO.CO.[Rh+2].[Rh+2].c1ccc(-c2ccccn2)nc1	inactive
CCN(Cc1cccc(C)c1)c1ccc(CO)c(Cl)c1	inactive

Assay result, entry c1ccc2c(Nc3ccc4c(c3)OCO4)c3ccoc3nc2c1 — outcome? inactive

Assay result, entry CN1CCN(Cc2ccc(NC(=O)c3cncc(C#Cc4cncc5[nH]ncc45)c3)cc2C(F)(F)F)CC1 — outcome? inactive

Assay result, entry COc1cccc2c1C(=O)c1c(O)c3c(c(O)c1C2=O)C[C@@](O)(C(=O)CO)CC3OC1CC(NCCCCC(OC(C)=O)OC(C)=O)C(O)C(C)O1 (stereo partly drawn) — outcome? active

Assay result, entry CCN(CC)c1ccc(/C=C2/NC(=O)NC2=O)cc1 — outcome? inactive

Assay result, entry CCN(CC)CCn1nc2c3c(cccc3c1=O)-c1ccccc1-2 — outcome? inactive
